Listing of entries alongside the reported Enzyme activity.
# Tested on: NUK-21 strain
# Format: cell-based, Myrmecridium flexuosum NUK-21
# setupConditions: metal ions 0.01%, 4% wheat bran medium, 30° C., 4 days
measuredMetric: Enzyme activity (unit/ml)

INSERT INTO assay_data (compound, measuredmetric, measurementunits, endpointresult) VALUES
  ('O=S(=O)([O-])[O-].[Na+].[Na+]', 'Enzyme activity', 'unit/ml', 0.26),
  ('[Cl][Ni][Cl]', 'Enzyme activity', 'unit/ml', 0.43),
  ('O=S(=O)([O-])[O-].[K+].[K+]', 'Enzyme activity', 'unit/ml', 0.26),
  ('O=S(=O)([O-])[O-].[Cd+2]', 'Enzyme activity', 'unit/ml', 0.42),
  ('[Cl][Pb][Cl]', 'Enzyme activity', 'unit/ml', 0.29),
  ('O=S(=O)([O-])[O-].O=S(=O)([O-])[O-].O=S(=O)([O-])[O-].[Al+3].[Al+3] [Al2(SO4)3]', 'Enzyme activity', 'unit/ml', 0.37);

---

# Test system: lactose oxidase of the NUK-21 strain
# methodSummary: Substrate specificity of lactose oxidase (OD500 nm peroxidase chromogen assay)
# Assay type: biochemical, Myrmecridium flexuosum NUK-21
# setupConditions: 0.7 mM substrate
Listing of entries alongside the reported Relative activity.
measuredMetric: Relative activity (%)

INSERT INTO results (molecule, endpointresult) VALUES
  ('O=C[C@H](O)[C@@H](O)[C@H](O[C@@H]1O[C@H](CO)[C@@H](O)[C@H](O)[C@H]1O)[C@H](O)CO', 83.4),
  ('OC[C@H]1O[C@@H](O[C@H]2[C@H](O)[C@@H](O)C(O)O[C@@H]2CO)[C@H](O)[C@@H](O)[C@H]1O (stereo partly shown)', 100),
  ('OC[C@H]1O[C@@](CO)(O[C@H]2O[C@H](CO)[C@@H](O)[C@H](O)[C@H]2O)[C@@H](O)[C@@H]1O', 0),
  ('O=C[C@H](O)[C@@H](O)[C@@H](O)[C@H](O)CO', 0),
  ('OC[C@@H](O)[C@H](O)[C@@H](O)CO', 0),
  ('O=C(O)[C@H](O)[C@@H](O)[C@H](O[C@@H]1O[C@H](CO)[C@H](O)[C@H](O)[C@H]1O)[C@H](O)CO', 0),
  ('O=C(CO)[C@@H](O)[C@H](O)[C@H](O)CO', 0),
  ('O=C[C@H](O)[C@@H](O)[C@H](O)CO', 0),
  ('OC[C@H]1O[C@H](O[C@H]2[C@H](O)[C@@H](O)[C@H](O)O[C@@H]2CO)[C@H](O)[C@@H](O)[C@@H]1O', 4.1),
  ('OC[C@@H](O)[C@@H](O)[C@H](O)[C@@H](O)CO', 0);

---

# Tested on: lactose oxidase of the NUK-21 strain
# Type: biochemical, Myrmecridium flexuosum NUK-21
# setupConditions: metal ions 1 mM, 30° C., 1 hour, 0.7 mM lactose
Listing of entries alongside the reported Relative activity.
measuredMetric: Relative activity (%)

INSERT INTO measurements (structuresmiles, measuredmetric, endpointresult) VALUES
  ('O=S(=O)([O-])[O-].[Fe+2]', 'Relative activity', 61.1),
  ('O=[N+]([O-])[O-].[Ag+]', 'Relative activity', 107.9),
  ('[Cl][Pb][Cl]', 'Relative activity', 89.7),
  ('[Cl][Sn][Cl]', 'Relative activity', 61.3),
  ('O=S(=O)([O-])[O-].[Ni+2]', 'Relative activity', 100),
  ('[Ca+2].[Cl-].[Cl-]', 'Relative activity', 109.5),
  ('[Cl][Hg][Cl]', 'Relative activity', 153.8),
  ('O=S(=O)([O-])[O-].[Cd+2]', 'Relative activity', 100),
  ('O=S(=O)([O-])[O-].[Cu+2]', 'Relative activity', 96.8),
  ('[Cl][Fe]([Cl])[Cl]', 'Relative activity', 103.2);
